# EXPERIMENT_NOTES: chemical genetic growth profiling, strain panel (AID 1159580);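 note: tested at 20 µM; growth read once vehicle control cultures reached saturation at 30 °C; 1 = growth at the plate median or of vehicle wells; lower values mean less growth of the strain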
# MEASUREMENT_CONTEXT: S. cerevisiae deletion strains, growth OD, locus YPR163C, strain tif3, active compounds read low
In all, about 5,500 compounds went through this assay and about 2,000 (36%) were called active. Another 18% or so got no clear call; they are omitted. The list shows a part of the results.
ENDPOINT_LABEL: normalized growth
Lab note: jot down the number only; don't add units.

Data request, read-out normalized growth, for CC(C)(O)[C@@H]1Cc2cc3ccc(=O)oc3cc2O1
1.01

Data request, read-out normalized growth, for COc1c(C(C)C)oc2cc3oc(=O)ccc3cc12
0.769

Data request, read-out normalized growth, for COc1ccc(Cl)cc1C(=O)NCCc1ccc(S(=O)(=O)NC(=O)NC2CCCCC2)cc1
1

Data request, read-out normalized growth, for CCN(Cc1ccncc1)C(=O)C(CO)c1ccccc1 (stereo not drawn)
0.982

Data request, read-out normalized growth, for COC(=O)C1OC(=O)C2OC23C1(C)CCC1C2(C)C(OC(C)=O)CC(OC(C)=O)C(C)(C)C2CC(=O)C13C (stereo not drawn)
0.991

Data request, read-out normalized growth, for Cc1ccccc1OCC(O)CO (stereo not drawn)
0.991

Data request, read-out normalized growth, for NC(=O)NCC(N)C(=O)O (stereo not drawn)
0.985

Data request, read-out normalized growth, for COC(=O)[C@]1(C)CCC[C@]2(C)c3ccc(C(C)C)cc3C(=O)CC12 (stereo partly drawn)
1

---

Can you tell me normalized growth for the items I'm about to list?
# EXPERIMENT_NOTES: chemical genetic growth profiling, strain panel (AID 1159580);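 note: tested at 20 µM; growth read once vehicle control cultures reached saturation at 30 °C; 1 = growth at the plate median or of vehicle wells; lower values mean less growth of the strain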
# MEASUREMENT_CONTEXT: S. cerevisiae deletion strains, growth OD, locus YIR030C, strain dcg1, active compounds read low
About 2,000 (36%) of roughly 5,500 compounds were called active. Not shown: some 18% with an inconclusive outcome. This is one part of the list.

Data request, read-out normalized growth, for CCOCN(C(=O)CCl)c1c(C)cccc1CC
0.972 (inactive)

Data request, read-out normalized growth, for CC1CCC2(OC1)OC1CC3C4CC[C@H]5C[C@@H](O)CC[C@]5(C)C4CC(=O)[C@]3(C)C1C2C (some centres undefined)
0.984 (inactive)

Data request, read-out normalized growth, for COc1cc(OC)c2c(=O)c(OC)c(-c3ccc(OC)c(OC)c3)oc2c1
1 (inactive)

Data request, read-out normalized growth, for CC(=O)OCC1=C(C(=O)O)N2C(=O)[C@@H](NC(=O)Cc3cccs3)[C@H]2SC1
0.99 (inactive)

---

# EXPERIMENT_NOTES: chemical genetic growth profiling, strain panel (AID 1159580);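 note: tested at 20 µM; growth read once vehicle control cultures reached saturation at 30 °C; 1 = growth at the plate median or of vehicle wells; lower values mean less growth of the strain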
# MEASUREMENT_CONTEXT: S. cerevisiae deletion strains, growth OD, locus YNL271C, strain bni1, active compounds read low
Among all 5,500 compounds or so, about 2,000 (36%) were called active. Another 18% or so got no clear call; they are omitted. The list shows a part of the results.
ENDPOINT_LABEL: normalized growth
Lab note: jot down the number only; don't add units.

Data request, read-out normalized growth, for CC1(C)C(=O)C=C[C@@]2(C)C1C=C[C@]1(C)C2CC[C@@]2(C)[C@H](c3ccoc3)OC(=O)C3OC321 (stereo not given in full)
0.983

Data request, read-out normalized growth, for Cc1ccccc1OCC(O)CO (stereo not given)
0.989

Data request, read-out normalized growth, for CCC1OC(=O)[C@H](C)C(=O)[C@H](C)[C@@H](OC2O[C@H](C)C[C@H](N(C)C)[C@H]2O)[C@](C)(OC)C2(CCCn3cnc(-c4cccnc4)c3)C[C@@H](C)C(=O)[C@H](C)[C@H]3N(C2)C(=O)O[C@]13C (stereo not given in full)
0.997

Data request, read-out normalized growth, for O=c1c(O)c(-c2ccc(O)c(O)c2)oc2cc(O)cc(O)c12
1.02

Data request, read-out normalized growth, for CNC(=O)Oc1cccc2c1OC(C)(C)O2
1

Data request, read-out normalized growth, for NC(N)=NC(=O)c1nc(Cl)c(N2CCCCCC2)nc1N
1.02

Data request, read-out normalized growth, for CN(C)c1nc(N)c(C(=O)N=C(N)N)nc1Cl
1.01

Data request, read-out normalized growth, for COc1ccc(Cl)cc1C(=O)NCCc1ccc(S(=O)(=O)NC(=O)NC2CCCCC2)cc1
0.999

Data request, read-out normalized growth, for CC1(C)C(=O)C=C[C@@]2(C)C1CC(=O)[C@]1(C)C2CC[C@@]2(C)[C@H](c3ccoc3)OC(=O)[C@H]3O[C@]321 (stereo not given in full)
1

Data request, read-out normalized growth, for CN1C[C@H](C(=O)N[C@]2(C)O[C@@]3(O)[C@@H]4CCCN4C(=O)[C@H](Cc4ccccc4)N3C2=O)C[C@@H]2c3cccc4[nH]cc(c34)C[C@H]21
0.974

Data request, read-out normalized growth, for CC1(C)C(=O)C=C[C@@]2(C)C1C[C@@H](O)[C@]1(C)C2CC[C@@]2(C)[C@H](c3ccoc3)OC(=O)[C@H]3O[C@]321 (stereo not given in full)
0.984

Data request, read-out normalized growth, for C[C@]12CCC3c4ccc(O)cc4CCC3C1C[C@@H](O)[C@@H]2O (stereo not given in full)
0.991

Data request, read-out normalized growth, for C[C@]12CCC3c4ccc(OS(=O)(=O)O)cc4CCC3C1CC[C@H]2O (stereo not given in full)
0.989

Data request, read-out normalized growth, for CC1(C)C2CC(=O)[C@]3(C)C(CC[C@@]4(C)[C@H](c5ccoc5)OC(=O)[C@H]5O[C@]543)[C@@]2(C)C(=O)C[C@H]1O (stereo not given in full)
1.01

Data request, read-out normalized growth, for CC(=O)O[C@@H]1CC(=O)[C@@]2(C)C(CC(=O)[C@]3(C)C2CC[C@@]2(C)[C@H](c4ccoc4)OC(=O)C4OC423)C1(C)C (stereo not given in full)
1
